Entries and their measured MIC follow.
test system: S. aureus /Meth. Res.; assay: Antibacterial activity (MIC); type: cell-based; conditions: Staphylococcus aureus; S. aureus /Meth. Res.; read-out: MIC

A selection of reference data follows.
{"COMPOUND": "CC=C=CC1=C(C(=O)O)N2C(=O)C(NC(=O)[C@H](N)c3ccc(O)cc3)C2SC1 (stereo partly shown)", "MIC": "> 63 µg/mL"}
{"COMPOUND": "C/C=C\\C1=C(C(=O)OC(c2ccccc2)c2ccccc2)N2C(=O)C(NC(=O)Cc3ccccc3)[C@H]2SC1 (stereo partly shown)", "MIC": "> 125 µg/mL"}
{"COMPOUND": "CC(C)=CC1=C(C(=O)OC(c2ccccc2)c2ccccc2)N2C(=O)C(NC(=O)Cc3ccccc3)[C@H]2SC1 (stereo partly shown)", "MIC": "> 125 µg/mL"}

Bench note: what MIC did CC#CC1=C(C(=O)OC(c2ccccc2)c2ccccc2)N2C(=O)C(NC(=O)Cc3ccccc3)[C@H]2SC1 (stereo partly shown) show?
> 16 µg/mL

* * *

Entries and their measured MIC follow.
test system: S. aureus /50% serum; assay: Antibacterial activity (MIC), 50% serum; format: cell-based; settings: Staphylococcus aureus
State the answer as a number, implicitly in µg/mL.

Below, each entry is followed by its recorded MIC result.
{"MOLECULE": "CC1=C(C(=O)O)N2C(=O)[C@@H](NC(=O)[C@H](N)c3ccccc3)[C@H]2SC1 [CEPHALEXIN, reference compound]", "MIC (µg/mL)": 1}
{"MOLECULE": "C/C=C\\C1=C(C(=O)OC(c2ccccc2)c2ccccc2)N2C(=O)C(NC(=O)Cc3ccccc3)[C@H]2SC1 (stereo partly drawn) [Ex. 1]", "MIC (µg/mL)": 0.5}
{"MOLECULE": "N[C@@H](C(=O)N[C@@H]1C(=O)N2C(C(=O)O)=C(Cl)CS[C@H]12)c1ccccc1 [CEFACLOR, reference compound]", "MIC (µg/mL)": 1}

Identify the measured MIC of CC=C=CC1=C(C(=O)O)N2C(=O)C(NC(=O)[C@H](N)c3ccc(O)cc3)C2SC1 (stereo partly drawn) [Ex. 14] for S. aureus /50% serum.
32

State its MIC on S. aureus /50% serum: CC(C)=CC1=C(C(=O)OC(c2ccccc2)c2ccccc2)N2C(=O)C(NC(=O)Cc3ccccc3)[C@H]2SC1 (stereo partly drawn) [Ex. 3]
0.06
